experimentalParameters: human gut metagenome, 24 h, 2 µM; also: call rule not given here
readoutKind: Bacterial Biotransformation

Reference set, count: 6
* Cc1cc2c(s1)Nc1ccccc1N=C2N1CCN(C)CC1 | Compound NOT metabolized
* Nc1nc(NC2CC2)c2ncn([C@H]3C=C[C@@H](CO)C3)c2n1.Nc1nc(NC2CC2)c2ncn([C@H]3C=C[C@@H](CO)C3)c2n1.O=S(=O)(O)O [ABACAVIR SULFATE] | Compound metabolized
* CC(C)(C)NC(=O)[C@H]1CC[C@H]2[C@@H]3CC[C@H]4NC(=O)C=C[C@]4(C)[C@H]3CC[C@]12C [FINASTERIDE] | Compound NOT metabolized
* CC(C)c1c(CN(C)C(C)Cc2ccccc2)n(C)n(-c2ccccc2)c1=O (stereo not drawn) | Compound NOT metabolized
* O=C(NC(Cc1cc(=O)[nH]c2ccccc12)C(=O)O)c1ccc(Cl)cc1 (stereo not drawn) [REBAMIPIDE] | Compound NOT metabolized
* CCCN1C[C@H](CSC)C[C@@H]2c3cccc4[nH]cc(c34)C[C@H]21.CS(=O)(=O)O [PERGOLIDE MESYLATE] | Compound NOT metabolized

Consider the additional compound presented here.
Value lookup for Bacterial Biotransformation; key = COc1ccccc1OCCNCC(O)COc1cccc2[nH]c3ccccc3c12 (stereo not drawn)
Compound NOT metabolized

====

assayOverview: The drug is tested on Z-002 corresponding to rabbit gut metagenome with ENA study accession number: PRJEB37062 and ENA sample accession number: ERS12561802 for biotransformation under anaerobic condition. The drug concentrations were measured over 9 timepoints collected between 0 and 24 hours of incubation by liquid-chromatography-coupled mass spectrometry (LC–MS)
experimentalParameters: 2 µM
readoutKind: Bacterial Biotransformation

Observe how each entry below is paired with its result.
• CC(C)[C@H]1CC[C@H](C(=O)N[C@H](Cc2ccccc2)C(=O)O)CC1 [NATEGLINIDE] = Compound metabolized
• COc1ccc(C(CN(C)C)C2(O)CCCCC2)cc1 (centres undefined) [VENLAFAXINE] = Compound NOT metabolized
• CC(=O)OCC(=O)[C@@]1(OC(C)=O)[C@@H](C)C[C@H]2[C@@H]3C[C@H](F)C4=CC(=O)C=C[C@]4(C)[C@@]3(F)[C@@H](O)C[C@@]21C [DIFLORASONE DIACETATE] = Compound metabolized
• CC(C)NCC(O)COc1ccc(CC(N)=O)cc1 (centres undefined) [ATENOLOL] = Compound NOT metabolized
• CC(=O)SCC(Cc1ccccc1)C(=O)NCC(=O)OCc1ccccc1 (centres undefined) [RACECADOTRIL] = Compound metabolized
• COc1ccc2cc([C@H](C)C(=O)O)ccc2c1 [NAPROXEN] = Compound NOT metabolized

For CCN1CCCC1CNC(=O)c1cc(S(=O)(=O)CC)c(N)cc1OC (centres undefined) [AMISULPRIDE] , what is its reported Bacterial Biotransformation?
Compound metabolized

Report Bacterial Biotransformation for Cc1ccccc1C(OCCN(C)C)c1ccccc1.O=C(O)CC(O)(CC(=O)O)C(=O)O (centres undefined) [ORPHENADRINE CITRATE] please.
Compound metabolized

Look at this compound and give its reported Bacterial Biotransformation. C#C[C@]1(OC(C)=O)CC[C@H]2[C@@H]3CCC4=CC(=O)CC[C@@H]4[C@H]3CC[C@@]21C [NORETHINDRONE ACETATE]
Compound metabolized
